Data provenance is ChEMBL document CHEMBL1201862.

# System: SW-620
# assay-notes: NCI tumour cell line growth inhibition, 48 h
The source made the active and inactive calls. Rule as the data show it: active = GI50 up to about 1.1 µM and inactive = higher.
Pick from true = active, false = inactive when you respond.

{"compound": "SC[C@@H]1COC[C@H](CS)S1", "cat": "false"}
{"compound": "COc1ccc(C(=O)C(C(=O)C(=O)Nc2nc3ccc(OC)cc3s2)c2ccc(OC)cc2)cc1 (configuration not stated)", "cat": "false"}
{"compound": "C=C1C(=O)OC2/C=C(\\C)C(O)CC(O)C(C)(O)CC(OC(=O)/C(C)=C/C)C12 (configuration not stated)", "cat": "false"}

Asked: Any idea what this test logged for C=CCn1c(-c2ccc(Cl)cc2)cs/c1=N\c1ccccc1OC ?
Given back: false

Asked: Any idea what this test logged for CC1(C)CC(/C=C2/OC(=O)c3ccccc32)=C(C(N)=O)C(=O)O1 ?
Given back: false

Asked: Any idea what this test logged for O=C1C=C(O)C(=O)c2c(O)ccc(O)c21 ?
Given back: false
